assayed.target: Mannose-6-phosphate isomerase (Homo sapiens)
experiment.description: inhibitors of human PMI, primary screen, biochemical, fluorescence intensity, coupled assay (AID 1209)
setup.conditions: purified PMI enzyme, at 20 µM
Hit rate of the full screen: of about 190,000 compounds, about 810 (0.43%) were called active. Cut-off read from the data, not from the text of the source: active = inhibition above about 50%; inactive = the rest. This is one part of a sample in which actives are shown more often than they occur.
Form entry, call: pick from active, inactive

[in] Hey, what did the test say about Cc1ccc(C2NC(=O)NC3=C2CCc2ccccc23)cc1 (stereo unspecified) ?
[out] inactive

[in] What would you report for O=C1NC2=C(CCc3ccccc32)C(c2ccccc2)N1 (stereo unspecified) ?
[out] inactive

[in] What would you report for CS(=O)(=O)N(CC(=O)NCC1CCCO1)c1cccc([N+](=O)[O-])c1 (stereo unspecified) ?
[out] inactive

[in] What would you report for "CCCC(=O)Nc1cc(OC)c(OC)cc1C(=O)O" ?
[out] inactive

[in] What would you report for "O=C(CCc1ccccc1)Nc1cc(C(=O)O)cc(C(=O)O)c1" ?
[out] inactive

[in] What would you report for "O=C(CCc1ccccc1)Nc1cccc(NC(=O)CCc2ccccc2)c1" ?
[out] inactive

[in] What would you report for "COc1ccccc1OCC(=O)Nc1ccc(O)cc1C(=O)O" ?
[out] inactive

[in] What would you report for "O=C(CSc1nc2ccccc2c(=O)n1CCCN1CCOCC1)N1CCN(c2ccccc2)CC1" ?
[out] inactive

[in] What would you report for "CCCCNc1cc(NC(C)=O)cc2cc(OC)c(OC)cc12" ?
[out] active

[in] What would you report for "Cc1cccc(-n2c(Cc3ccccc3)nnc2SCC(=O)N2CCOCC2)c1" ?
[out] inactive

[in] What would you report for "COC(=O)C1CCN(C(=O)c2ccc(SC)cc2OC)CC1" ?
[out] inactive

The reported measurements were obtained from PubChem BioAssay AID1209.
